Data credit: ChEMBL document CHEMBL4814065

Give Ki for every item shown.
assay: Inhibition of Burkholderia pseudomallei gamma carbonic anhydrase preincubated with enzyme for 15 mins by phenol red-based stopped-flow CO2 hydration assay

Okay, here is my list. What is Ki for each of these?
1. NS(=O)(=O)c1ccc(N2CCCCS2(=O)=O)cc1
2. NS(=O)(=O)c1ccc(N2CN(Cc3c(F)c(F)c(F)c(F)c3F)CCS2(=O)=O)cc1

Solution:
1. > 50000 nM
2. 824 nM

Okay, here is my list. What is Ki for each of these?
1. NS(=O)(=O)c1ccc(N2CN(Cc3cccc(Cl)c3)CCS2(=O)=O)cc1
2. NS(=O)(=O)c1ccc(CCN2CN(Cc3c(F)cccc3F)CCS2(=O)=O)cc1

Solution:
1. 68.7 nM
2. 19.5 nM
